All values here come from the supplement of paper PMC10724198.

Tested on: Saccharomyces cerevisiae
Assay: protein stability index of tFT-peptide fusion (C-terminal peptide) (PSI (0-1 scale)); higher = more stable (slower turnover)
Details: genetic background: cdc34-1; temperature: 37 C
Hi there, I'd appreciate the recorded protein stability index for every entry that follows.
Answers are plain numbers.

These solved cases illustrate the format of a correct answer.
[[record]]
chain = "WVCCFVWGCLIR"
target_desc = "Saccharomyces cerevisiae"
result_value = 0.2

[[record]]
chain = "KNVFLIRGRKNC"
target_desc = "Saccharomyces cerevisiae"
result_value = 0.627

[[record]]
chain = "RISGSIVVRKRS"
target_desc = "Saccharomyces cerevisiae"
result_value = 0.673

[[record]]
chain = "SFSFRPCLLLFF"
target_desc = "Saccharomyces cerevisiae"
result_value = 0.328


Hey, can you go through the list below and give me protein stability index for every item?
1. VFFFNALFCFFC
2. GVLIFLSFQPIA
3. PLATSLIGLFVV
4. VVFVFIDLGLCV

1. 0.523
2. 0.539
3. 0.663
4. 0.187

Hey, can you go through the list below and give me protein stability index for every item?
1. GYSMPVSFFFAL
2. SRLMLPLSPLVC
3. VRTFAVSCLCVC
4. CMAWLSVLKTLF
5. LLCLLLVPQPHR

1. 0.669
2. 0.41
3. 0.0897
4. 0.709
5. 0.604

----------
System: Saccharomyces cerevisiae
Test: protein stability index of tFT-peptide fusion in wild type (PSI (0-1 scale)); higher = more stable (slower turnover)
Conditions: genetic background: wild type
Hi there, I'd appreciate the recorded protein stability index for every entry that follows.
One number for each entry.

[[record]]
chain = "KKHKKAQKQKIN"
result_value = 0.06


Hey, can you go through the list below and give me protein stability index for every item?
1. CLVSLPILLTFR
2. RVVRLDAIYFRI
3. KKHKKGQKMKIN

1: 0.0802; 2: 0.399; 3: 0.105

Hey, can you go through the list below and give me protein stability index for every item?
1. RVTRPDAIYFRI
2. RDKRNHLIKLLN
3. RLIQPLPVQKLN
4. HVVYLSCVACIN
5. RVKRLDAIYFRI

1. 0.34
2. 0.1
3. 0.0688
4. 0.0139
5. 0.392

Hey, can you go through the list below and give me protein stability index for every item?
1. CLVGLPILLFFR
2. CLLSLPILLFFR
3. RSLRVLLPLYVR

0.0666
0.0527
0.202

Hey, can you go through the list below and give me protein stability index for every item?
1. FSGRWTFRYWVN
2. PSLCASFWRVVG

1. 0.0867
2. 0.129

Hey, can you go through the list below and give me protein stability index for every item?
1. PDKRNHLIWLLN
2. ARWRVVLWRGAS
3. PFKRNHLIKLLN
4. PDKRNHLIKLLNK
5. PDKRNHPIKLLN
6. VRGAVGGWRLVGR
7. PSLAASFWRVVGA

1. 0.0587
2. 0.517
3. 0.0943
4. 0.655
5. 0.282
6. 0.676
7. 0.545

Hey, can you go through the list below and give me protein stability index for every item?
1. PDKFNHLIKLLN
2. VRGAVHGWRLVG
3. CLVSTPILLFFR
4. PSLLASFWRVVG
5. RLIQPLPVQFLK
6. AITLPMMPLLLR
7. AEWRVGLWRGAS
8. PSFAASFWRVVG

1. 0.117
2. 0.155
3. 0.132
4. 0.145
5. 0.613
6. 0.187
7. 0.528
8. 0.148

Hey, can you go through the list below and give me protein stability index for every item?
1. LKILRQKMNAQN
2. KKHKKGQKQIIN
3. PSLAASFWWVVG

0.208
0.642
0.582

Hey, can you go through the list below and give me protein stability index for every item?
1. LKILFQKMNHQN
2. FSMRWTFRYCVN
3. RVTRHDAIYFRI

0.267
0.088
0.517

----------
Test system: Saccharomyces cerevisiae
Experiment: protein stability index of tFT-peptide fusion (C-terminal peptide) (PSI (0-1 scale)); higher = more stable (slower turnover)
Settings: genetic background: wild type; temperature: 37 C
Field: class. Source value: protein stability index. Ranges: low-valued: < 0.4; mid-valued: ≥ 0.4 and < 0.5; high-valued: ≥ 0.5

Worked set:
[[record]]
chain = "TLRINSPFYFLS"
class_name = "high-valued"

[[record]]
chain = "FALPPSLLLLSA"
class_name = "high-valued"

[[record]]
chain = "LFLIYCFAFSIG"
class_name = "low-valued"


Class label required: FVSHRRFSLFLY low-valued

Query SDVLVVWVFFCR next mid-valued

----------
Tested on: Saccharomyces cerevisiae
Test: protein stability index of tFT-peptide fusion in deletion strain of DAS1 (PSI (0-1 scale)); higher = more stable (slower turnover)
MEASURE: protein stability index
Answers are plain numbers.

These solved cases illustrate the format of a correct answer.
[[record]]
chain = "RLIQPLPEQFLN"
result_value = 0.592

[[record]]
chain = "PDKPNHLIKLLN"
result_value = 0.607

[[record]]
chain = "CTSCGYKFRTLN"
result_value = 0.696

[[record]]
chain = "LVVYLSCVPCIN"
result_value = 0.305

[[record]]
chain = "LKILRQKMNHQNK"
result_value = 0.664

[[record]]
chain = "VRGAVGGWRLDG"
result_value = 0.691

[[record]]
chain = "PSLLASFWRVVG"
result_value = 0.695


Field: next sequence
What value of protein stability index has been reported for the following sequence? PDKRNGLIKLLN 0.614

----------
Tested on: Saccharomyces cerevisiae
Assay: protein stability index of tFT-peptide fusion (C-terminal peptide) (PSI (0-1 scale)); higher = more stable (slower turnover)
Conditions: genetic background: das1 deletion; temperature: 30 C
# protein stability index >= 0.5 gives 1 (yes), anything below gives 0 (no)

[[record]]
chain = "CVFAYSPVALRC"
class_name = "0 (no)"

[[record]]
chain = "FPFPLSSFLLLY"
class_name = "0 (no)"

[[record]]
chain = "VSFFCLICRVYP"
class_name = "0 (no)"


In plain terms: is recorded protein stability index at least 0.5 for DGSFCLLYMTIA ? 0 (no)

Query GLFGFASPPPPS next 1 (yes)

Query NYFRPWLIFHKC next 1 (yes)

Query LCYFFFISLFLG next 0 (no)

Query SELLVHVVFWLA next 0 (no)

Query PALPQPMNPAPP next 1 (yes)

Query LGSCSLIYRKFS next 1 (yes)

Query SFFCFFLSFFYL next 0 (no)

Query PFFVLFSLAFLF next 0 (no)

Query NNQIQKKMYQTN next 1 (yes)

Query FRSMFLFLNLLF next 0 (no)

Query FCFLLLSWAFWV next 0 (no)

Query SVLCLFSRLRSV next 1 (yes)

Query LSFLLLLGCFGS next 0 (no)

----------
Hi there, I'd appreciate the recorded protein stability index for every entry that follows.
System: Saccharomyces cerevisiae
Assay: protein stability index of tFT-peptide fusion (C-terminal peptide) (PSI (0-1 scale)); higher = more stable (slower turnover)
Details: genetic background: cdc53-1; temperature: 37 C
Numbers only.

These solved cases illustrate the format of a correct answer.
[[record]]
chain = "VSIRVVVWVSWG"
measure = "protein stability index"
result_value = 0.225

[[record]]
chain = "SSLAKFQLISTY"
measure = "protein stability index"
result_value = 0.464

[[record]]
chain = "LHLSSFVILLEL"
measure = "protein stability index"
result_value = 0.317

[[record]]
chain = "SPCLPRGVLFLA"
measure = "protein stability index"
result_value = 0.725


Hey, can you go through the list below and give me protein stability index for every item?
1. SFAVSSDYLFII
2. ASLVGGVLLVVV
3. FPFPLSSFLLLY
4. IFSGCRIALSVF

1: 0.788; 2: 0.5; 3: 0.401; 4: 0.052

Hey, can you go through the list below and give me protein stability index for every item?
1. YGWILQLPCFVI
2. CGWFVSVGWRLG
3. FLLCRVFVLLRS

1: 0.237; 2: 0.67; 3: 0.0441

Hey, can you go through the list below and give me protein stability index for every item?
1. LPALPFPIPTFA
2. CFVSFLHLLYFS
3. VCDPWVFIRCLV
4. DLRGLGRFRISH

[0.0586, 0.341, 0.574, 0.741]

Hey, can you go through the list below and give me protein stability index for every item?
1. SGRFRAFVLRSM
2. LCSLPIVCCFFL
3. NGLVCVFILSWY
4. AYCGGRNKCTTE
5. GGTFWDGLVLVH
6. PPTPYPRFIFSF
7. RGKVVRGLLFCA
8. GVQFSVKWVKLG

1. 0.746
2. 0.552
3. 0.261
4. 0.711
5. 0.418
6. 0.754
7. 0.719
8. 0.7
